meta.source: ChEMBL document CHEMBL1201862

# Tested on: K562
# assay-notes: NCI tumour cell line growth inhibition, 48 h
The source made the active and inactive calls. Rule as the data show it: active = GI50 up to about 1.1 µM and inactive = higher.
Return exactly one item of 1.0 = active, 0.0 = inactive

// below: answered compounds
input: Any idea what this test logged for Cc1cc(Br)cc(C)c1NC(=O)C(=O)C(C(=O)c1ccc(Cl)c(Cl)c1)C1OC(=O)c2ccccc21 (configuration not stated) ?
output: 0.0

input: Any idea what this test logged for Oc1ccc(Cn2c(-c3ccc(O)cc3)nc3ccccc32)cc1 ?
output: 0.0

input: Any idea what this test logged for COc1cc(C(c2c(O)c3ccccc3oc2=O)c2c(O)c3ccccc3oc2=O)ccc1O ?
output: 0.0

Please turn your attention to the following entry.
input: Any idea what this test logged for CC(C)(C)n1[nH]c(=O)n(C(C)(C)C)c1=O ?
output: 0.0

----------
# System: K562
# assay-notes: NCI tumour cell line growth inhibition, 48 h
The source made the active and inactive calls. Cut-off read from the data, not from the text of the source: active = GI50 up to about 1.1 µM and inactive = higher.
Return exactly one item of 1 (active), 0 (inactive)

input: Any idea what this test logged for COc1cc(S(=O)(=O)Nc2ccc(-c3csc(/N=C\c4ccccc4O)n3)cc2)ccc1Cl ?
output: 0

input: Any idea what this test logged for O=c1[nH]c(=O)n(C2CC(O)C(CS)O2)cc1F (stereo not given) ?
output: 0

More entries:
input: Any idea what this test logged for CCOc1ccc(OP2(=O)NC(=O)C=C(C)N2)cc1 (stereo not given) ?
output: 0

input: Any idea what this test logged for CCOP(=O)(C/C(O)=C1\C(=O)C(CCCCNC(=O)OC(C)(C)C)N(Cc2ccccc2)C1=O)OCC (stereo not given) ?
output: 0

----------
# System: MCF7
# assay-notes: NCI tumour cell line growth inhibition, 48 h
Active and inactive are the calls of the source. No stated cut-off is given here; in the data, active = GI50 up to about 1.1 µM and inactive = higher.
Entries and their measured GI50 follow.

Examples from the recorded data:
input: Data request, read-out GI50, for COc1cccc(NC(=O)CC(=O)Nc2cccc(OC)c2)c1
output: > 100 µM (inactive)

input: Data request, read-out GI50, for COc1cc(OC)c(/C=C/c2cnc3ccccc3n2)c(OC)c1
output: > 10 µM (inactive)

input: Data request, read-out GI50, for CC1NOC(NS(=O)(=O)c2ccc(/N=N/c3c(O)c(C(=O)O)cc4ccccc34)cc2)C1C (stereo not given)
output: > 100 µM (inactive)

input: Data request, read-out GI50, for O=C1C(=Cc2cccc(Cl)c2)N=C(c2ccccc2)N1n1c(-c2ccccc2)nc2ccccc2c1=O
output: 25.9 µM (inactive)

More entries:
input: Data request, read-out GI50, for O=C(CSc1nc2ccc(I)cc2c(=O)n1Cc1ccccc1)Nc1ccc(Br)cc1
output: > 100 µM (inactive)

input: Data request, read-out GI50, for O=C1CSC(c2ccc([N+](=O)[O-])cc2)N1c1ccc(-n2c(-c3ccccc3)nc3ccccc3c2=O)cc1 (stereo not given)
output: 73.5 µM (inactive)

----------
# Test system: CCRF-CEM
# assay-notes: NCI tumour cell line growth inhibition, 48 h
Calls of active or inactive are those of the source. No stated cut-off is given here; in the data, active = GI50 up to about 1.1 µM and inactive = higher.
Return exactly one item of TRUE = active, FALSE = inactive

input: Any idea what this test logged for C=C1C(=O)O[C@H]2C/C(C)=C/CC[C@@]3(C)O[C@](C)(CC[C@@H]3I)[C@@H](I)C[C@@H]12 ?
output: TRUE

input: Any idea what this test logged for CS(=O)(=O)c1nc(-c2cc3c(c(S(C)(=O)=O)n2)CCC3)cc2c1CCCC2 ?
output: FALSE

input: Any idea what this test logged for COC(=O)N/N=c1\cc(C(=O)Nc2ccc(C)c(C)c2)oc2cc(O)ccc12 ?
output: FALSE

More entries:
input: Any idea what this test logged for CCc1ccc2oc(-c3cc(O)c(-c4nc5cc(CC)ccc5o4)cc3O)nc2c1 ?
output: FALSE

input: Any idea what this test logged for CC(C)(C)c1cc(CCCCCCCC2(CCCCCCCc3cc(C(C)(C)C)cc(C(C)(C)C)c3)OC(COCCOCCCCCC#N)C(COCCOCCCCCC#N)O2)cc(C(C)(C)C)c1 (centres undefined) ?
output: FALSE

input: Any idea what this test logged for Cc1ccc2[nH]/c(=N/S(=O)(=O)c3cc(C)c(Cl)cc3S)[nH]c2c1 ?
output: FALSE

input: Any idea what this test logged for Cc1ccccc1C(=O)C#Cc1cn(C2CC(O)C(CO)O2)c(=O)[nH]c1=O (centres undefined) ?
output: FALSE

input: Any idea what this test logged for Cc1nnc(N/N=C2\C(=O)Nc3ccccc32)n1N ?
output: FALSE

input: Any idea what this test logged for CCSc1nc(COC(=O)NC)c(COC(=O)NC)n1C ?
output: FALSE
